# Tested on: LOX IMVI
# experiment-notes: NCI tumour cell line growth inhibition, 48 h
Activity calls are given as the source filed them. No stated cut-off is given here; in the data, active = GI50 up to about 1.1 µM and inactive = higher.
Labels: active, inactive

[[record]]
compound = "CCOC(=O)C(=Cc1ccccc1Br)C(=O)OCC"
test_system = "LOX IMVI"
group_label = "active"

[[record]]
compound = "N[C@@H](Cc1ccccc1)C(=O)N1CCC[C@@H]1P(=O)(Oc1ccccc1)Oc1ccccc1"
test_system = "LOX IMVI"
group_label = "inactive"

[[record]]
compound = "CN(C)c1ccc(C(C#N)NNC(=O)Cc2ccccc2)cc1 (stereo not given)"
test_system = "LOX IMVI"
group_label = "inactive"

[[record]]
compound = "CC1(C)C(O)c2ccccc2OC1N1CCN(C2Oc3ccccc3C(O)C2(C)C)CC1 (stereo not given)"
test_system = "LOX IMVI"
group_label = "inactive"

[[record]]
compound = "Cc1cc(C)c(S(=O)(=O)N(CCCN)OCCCN)c(C)c1"
test_system = "LOX IMVI"
group_label = "inactive"

[[record]]
compound = "C=C1C(=O)O[C@@H]2CC(CO)=C([C@@H](C)CCCO)[C@@H](OC(=O)/C(C)=C\\C)[C@H]12"
test_system = "LOX IMVI"
group_label = "inactive"

[[record]]
compound = "CCOC(=O)C1=CNC(C(=O)OCC)C1c1cccn1-c1ccccc1 (stereo not given)"
test_system = "LOX IMVI"
group_label = "inactive"

[[record]]
compound = "Cc1cc2c(cc1O)CC[C@@H]1[C@@H]2CC[C@]2(C)[C@@H](O)CC[C@@H]12"
test_system = "LOX IMVI"
group_label = "inactive"

[[record]]
compound = "C=C1CC(Cn2cc(C)c(=O)[nH]c2=O)(c2ccc(Cl)cc2)OC1=O (stereo not given)"
test_system = "LOX IMVI"
group_label = "inactive"

[[record]]
compound = "CC1CCN(CCC(=O)CC(c2ccccc2)c2c(O)c3ccccc3oc2=O)CC1 (stereo not given)"
test_system = "LOX IMVI"
group_label = "inactive"

